Cited source for all entries: paper PMC6476306

As shown below, each of these compounds has a reported pKd value.
Target: S. aureus DnaG primase CTD (Staphylococcus aureus, UniProt P63964)
Sequence (P63964 463-605): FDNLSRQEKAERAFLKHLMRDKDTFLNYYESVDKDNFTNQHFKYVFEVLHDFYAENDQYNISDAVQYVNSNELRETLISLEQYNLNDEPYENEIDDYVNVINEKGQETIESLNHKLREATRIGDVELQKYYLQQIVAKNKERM
pKd: −log10 of the molar value.
MEASURED_QUANTITY: pKd

SMILES_STR: O=c1c(O)c(-c2cc(O)c(O)c(O)c2)oc2cc(O)cc(O)c12
MEASURED_QUANTITY: pKd
MEASUREMENT: < 2.40
//
SMILES_STR: Nc1nc2c(ncn2COCCO)c(=O)[nH]1
MEASURED_QUANTITY: pKd
MEASUREMENT: < 2.40
//
SMILES_STR: Nc1ncnc2c1ncn2[C@@H]1O[C@H](CO)[C@@H](O)[C@H]1O
MEASURED_QUANTITY: pKd
MEASUREMENT: < 2.40
